target: MERTK (UniProt Q12866); experiment: phosphorylation enrichment, bacterial display (enrichment ratio); higher = better substrate or ligand; peptides without Tyr show the background;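 also: 11-residue human phosphosite peptides and single-mutation variants displayed on the E. coli surface, counted by deep sequencing, each peptide's frequency after selection divided by its frequency in the unselected input library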;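 also: frequency after pTyr selection over input frequency; kinase dosed for 20-30% of maximal phosphorylation in three min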
Sequence (Q12866 whole entry, looked up): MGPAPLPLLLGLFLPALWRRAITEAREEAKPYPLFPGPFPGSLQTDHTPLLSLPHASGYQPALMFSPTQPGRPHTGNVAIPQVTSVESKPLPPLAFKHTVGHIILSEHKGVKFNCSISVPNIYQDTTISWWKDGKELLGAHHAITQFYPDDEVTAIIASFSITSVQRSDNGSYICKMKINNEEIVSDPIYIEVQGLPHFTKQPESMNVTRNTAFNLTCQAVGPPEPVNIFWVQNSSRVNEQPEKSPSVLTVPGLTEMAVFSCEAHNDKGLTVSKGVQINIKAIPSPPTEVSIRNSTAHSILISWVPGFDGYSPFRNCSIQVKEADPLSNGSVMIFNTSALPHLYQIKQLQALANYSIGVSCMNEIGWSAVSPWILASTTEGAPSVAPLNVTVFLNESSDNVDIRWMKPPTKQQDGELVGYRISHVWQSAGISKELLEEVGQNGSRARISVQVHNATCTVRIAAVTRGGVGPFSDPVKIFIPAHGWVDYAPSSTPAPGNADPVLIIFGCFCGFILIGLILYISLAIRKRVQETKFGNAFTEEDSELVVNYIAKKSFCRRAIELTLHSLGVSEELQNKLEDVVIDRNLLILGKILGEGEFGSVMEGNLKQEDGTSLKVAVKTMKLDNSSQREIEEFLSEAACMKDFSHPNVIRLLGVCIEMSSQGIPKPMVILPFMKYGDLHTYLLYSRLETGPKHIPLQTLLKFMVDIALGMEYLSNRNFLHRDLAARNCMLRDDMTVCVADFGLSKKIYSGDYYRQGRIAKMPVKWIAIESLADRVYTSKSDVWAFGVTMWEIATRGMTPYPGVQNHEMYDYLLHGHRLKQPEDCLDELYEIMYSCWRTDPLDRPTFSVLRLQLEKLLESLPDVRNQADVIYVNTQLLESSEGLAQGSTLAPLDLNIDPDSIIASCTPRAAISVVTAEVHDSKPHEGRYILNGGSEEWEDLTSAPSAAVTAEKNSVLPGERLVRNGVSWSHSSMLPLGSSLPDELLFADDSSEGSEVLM
Label 0.0 if phosphorylation enrichment falls below 0.5; label 1.0 in every other case.

- monomer sequence: "KILGRYFETSS [PAX2_Y72_G76S_YF]"
  assayed system: "MERTK (UniProt Q12866)"
  assigned category: 0.0
- monomer sequence: "MGGSVYFSFPD [HIKESHI_Y55_YF]"
  assayed system: "MERTK (UniProt Q12866)"
  assigned category: 1.0
- monomer sequence: "KKGMIYGGGGG [PSME1_Y249_T244K]"
  assayed system: "MERTK (UniProt Q12866)"
  assigned category: 0.0
- monomer sequence: "FIILIYAMKKK [SLCO1B1_Y645_YF]"
  assayed system: "MERTK (UniProt Q12866)"
  assigned category: 1.0
- monomer sequence: "EFGSGYPNDPK [RNASEH2A_Y210_D205E_YF]"
  assayed system: "MERTK (UniProt Q12866)"
  assigned category: 1.0
- monomer sequence: "PSQRPYVYYYS [PTEN_Y174_R173P]"
  assayed system: "MERTK (UniProt Q12866)"
  assigned category: 1.0
- monomer sequence: "EVVGRYSGHNA [MLH1_Y183_V185G]"
  assayed system: "MERTK (UniProt Q12866)"
  assigned category: 0.0
- monomer sequence: "GRIHSYRGHLW [VHL_Y112_R107G]"
  assayed system: "MERTK (UniProt Q12866)"
  assigned category: 0.0
- monomer sequence: "KGEDFYCVTFH [FHL1_Y149_C153Y_YF]"
  assayed system: "MERTK (UniProt Q12866)"
  assigned category: 1.0
- monomer sequence: "GTFVIYVRFSG [FLNB_Y1687_G1691S_YF]"
  assayed system: "MERTK (UniProt Q12866)"
  assigned category: 0.0
- monomer sequence: "VEDHDYEGGIG [TKT_Y564_Y563D]"
  assayed system: "MERTK (UniProt Q12866)"
  assigned category: 1.0

Just for reference, the supplement of paper PMC10065799 is where these values come from.
